# System: Jurkat (FADD−/−) cells
# protocol-description: Inhibition of TNF-induced programmed Jurkat (FADD−/−) cell necrosis (Cell Titer-Glo)
# Assay type: cell-based, human
# setup-conditions: Homo sapiens, Jurkat, 20 h, TNF 10 ng/mL, intracellular ATP level, read-out: Cellular IC50 (M) Jurkat (FADD−/−)
measure: IC50

Example compounds with recorded IC50:
{"compound": "CN1C(=O)[C@@H](NC(=O)c2cn(Cc3ccccc3)cn2)COc2ccc3cnccc3c21 [RIP1-109]", "IC50": "7.22e-10 M"}
{"compound": "CN1C(=O)[C@@H](NC(=O)c2cn(Cc3ccccc3)cn2)COc2cc3nccnc3cc21 [RIP1-129]", "IC50": "7.94e-07 M"}
{"compound": "Cc1ccc(Cc2cc(C(=O)N[C@H]3COc4cc5[nH]c(C)nc5cc4N(C)C3=O)n(C)n2)cc1 [RIP1-073]", "IC50": "> 2e-06 M"}
{"compound": "CN1C(=O)[C@@H](NC(=O)c2n[nH]c(Cc3ccccc3)n2)CSc2cc3[nH]ncc3cc21 [RIP1-013]", "IC50": "5.3e-10 M"}

Let us examine a further case.
Qu. What value of measured IC50 is listed for CN1C(=O)[C@@H](NC(=O)c2ncn(Cc3ccccc3)n2)CSc2cc3[nH]nc(Cl)c3cc21 [RIP1-026] ?
Ans. 2.8e-10 M

Provenance of the data: patent US20210292340A1
